Data origin: PubChem BioAssay (NCI)

system: RXF 393 renal; assay: NCI-60 one-dose screen, 48 h; conditions: 10 µM unless noted
The panel holds about 83,000 compounds, 20% with a hit somewhere; the sample as a whole holds those more often. Calls of active or inactive are those of the source. The calls were made as follows: active = growth percent below 10; inactive = the rest.
In this exercise, the only acceptable responses are TRUE (active), FALSE (inactive)

{"columns": ["COMPOUND", "TESTED_TARGET", "LABEL_VALUE"],
 "data": [
  ["Cc1nc2ncc(-c3ccc4ncnc(NCc5ccccc5)c4c3)cc2[nH]1", "RXF 393 renal", "TRUE"]
]}

// query What classification did CNC1CCc2c(sc(NC(=O)c3ccc(C(C)(C)C)cc3)c2C(N)=O)C1 (stereo not drawn) end up with in this test?
// result FALSE

// query Now this one: `CC(=O)Nc1cccc(Nc2nc(N[C@H](C)c3ccccc3)c3ccccc3n2)c1`
// result TRUE

// query Now this one: `CS(=O)(=O)c1ccc(-c2nn(-c3ccccc3)cc2/C=N/NC(=O)c2nc(N)n[nH]2)cc1`
// result FALSE

// query Now this one: `N/C(=N\C(N)=N\c1nc2ccccc2s1)c1cccc(F)c1`
// result FALSE

// query Now this one: `Cn1cc(-c2nc(N)nnc2-c2c[nH]c3ccc(Br)cc23)c2cc(Br)ccc21`
// result FALSE
